Experiment: Mouse plasma PK (IV and PO dosing)
Assay type: in vivo, Male C57 Bl/6J mice
Details: male, C57 Bl/6J, 7 mg/kg; PO dosing, mouse plasma; read-out: AUC (area under the curve)
Experimental: In vivo PK (pharmacokinetics) studies were run at Scripps Florida DMPK Core facility. Mouse plasma PK data was obtained using the compound of Example 5 (N-(2-amino-5-(thiophen-2-yl)phenyl)-2-oxo-1,2,3,4-tetrahydroquinoline-6-carboxamide) Dose: 1 mg/kg intravenous (IV), 7 mg/kg oral dosing (PO) Formulation: 0.1 mg/mL (IV) and 1 mg/mL (PO) solution in 10/10/80 DMSO/Tween80/Water Mice Info: Male C57 Bl/6J Plasma PK were evaluated in mice after administration of compound Example 5. […]
metric: AUC

Which measured AUC value corresponds to `Nc1ccc(-c2cccs2)cc1NC(=O)c1ccc2c(c1)CCC(=O)N2` ? 11 to 12 µM·h

Numbers sourced from patent US20190270733A1.
